Exercise: state measured growth for each of the molecules provided.
Test system: MDA-MB-231 breast
Assay Notes: NCI-60 one-dose screen, 48 h (100 = growth as untreated, 0 = no growth, -100 = all killed)
Test Conditions: 10 µM unless noted
About 83,000 compounds went through this panel and 20% of them were active in at least one assay; those are over-represented in the sample as a whole.
Give your result in % as a bare value.

Query: growth; subject: CNCCCn1c2c(c3ccc(Cl)cc3c1=O)C(=O)c1cc(OC)cnc1-2
77.3

Query: growth; subject: CSc1ccc(/C=C2\C=C(CC(=O)NCc3ccc(C(=O)c4ccccc4)cc3)c3cc(F)ccc32)cc1
-7.54

Query: growth; subject: c1ccc(-c2nnn(-c3ccccc3)n2)cc1
84.6

Query: growth; subject: COc1cc(/C=N/NC(=O)Cn2c(-c3ccc(C)o3)nc3ccccc32)ccc1OCc1ccccc1
78.7

Query: growth; subject: CC(C)c1ccc(-c2cnc3nonc3n2)cc1
38.5

Query: growth; subject: CCOC(=O)c1ccc2c(c1)[n+](=O)c(C(=O)c1ccc3ccccc3c1)c(C(F)(F)F)n2[O-]
-99.4

Query: growth; subject: CCOC(=O)c1cc(N)nc2ccccc12
107

Query: growth; subject: CCCCCCCCCCCCNC(=O)N[C@H](C(=O)N[C@H]1/C=C/OCCNC(=O)/C=C/[C@H](C(C)C)NC1=O)C(C)C
81.2

Query: growth; subject: Nc1ncnc2c1N=C(c1ccc3c(c1)OCO3)CC(c1ccc(Cl)cc1)N2 (configuration not stated)
72.3

Query: growth; subject: O=c1c2cc(Cl)ccc2oc2ccc(OCCCCCN3CCCCC3)cc12
46.1

Query: growth; subject: N#Cc1ccc(-c2ccc(-c3cccs3)o2)cc1F
82.2

Query: growth; subject: CCCCCCCOc1cccc(/C=C2\N=C3SCCCN3C2=O)c1
87.7

Query: growth; subject: Cc1ccccc1C1CC(=O)c2ccccc2C1C (configuration not stated)
105

Query: growth; subject: COc1cc2c(c(OC)c1O)C(=O)C(OC)C(c1ccc(O)c(O)c1)O2 (configuration not stated)
-8.18

Query: growth; subject: COc1cccc(-c2nc3sccn3c2-c2ccnc(NCCN3CCCN(C)S3(=O)=O)n2)c1
84.9

Query: growth; subject: CC(C)OC1OC(OC(C)C)C(OC(C)C)OC1OC(C)C (configuration not stated)
91.8

Query: growth; subject: CN1C(=O)NC(Cc2c[nH]c3c(Cl)cccc23)C1=O (configuration not stated)
117

Query: growth; subject: O=c1c2cc(Cl)ccc2oc2ccc(OCCCCCN3CCCCCC3)cc12
84.4

Query: growth; subject: O=C(c1ccccc1)c1cccc(C(Br)Br)c1
103

Query: growth; subject: C=C1C(=O)O[C@H]2[C@H]1CC/C(COC(=O)NCc1[nH]nc3ccccc13)=C\CC[C@@]1(C)O[C@@H]21
49.1

Query: growth; subject: O=C(Cc1ccc([N+](=O)[O-])cc1)Oc1ccccc1
108

Query: growth; subject: O=C1Nc2ccccc2/C1=C\c1nc(C2CCN(S(=O)(=O)c3ccc(F)cc3)CC2)n2ccccc12
32.8

====

System: SK-MEL-2 melanoma
Assay Notes: NCI-60 one-dose screen, 48 h (100 = growth as untreated, 0 = no growth, -100 = all killed)
Test Conditions: 10 µM unless noted
This is part of a sample that, as a whole, favours compounds with a hit. Of some 83,000 tested, about 20% had one in any assay.
Exercise: state measured growth for each of the compounds provided.
Give your result in % as a bare value.

Query: growth; subject: c1ccc(-c2nnn(-c3ccccc3)n2)cc1
94.7

Query: growth; subject: CC(C)(C)OC(=O)N1CCCN(CCNc2nccc(-c3c(-c4cccc(O)c4)nc4sccn34)n2)S1(=O)=O
103

Query: growth; subject: C#C[C@]1(O)CC[C@H]2[C@@H]3CC=C4c5sc(-c6cccc(Br)c6)nc5CC[C@]4(C)[C@H]3CC[C@@]21C
98.2

Query: growth; subject: COc1cc(Nc2ncccc2/C=C/C(=O)c2cc(OC)c(OC)c(OC)c2)cc(OC)c1OC
78.3

Query: growth; subject: O=C(NCCN1CCCCC1)n1cc(-c2ccncc2)c(-c2ccc(Cl)c(O)c2)n1
60.8

Query: growth; subject: COc1cc(CN2CCC(N3CCCC3=O)c3ccccc32)cc(OC)c1OC (centres undefined)
89.8

Query: growth; subject: CCn1c(Cc2ccccc2Nc2c(Cl)cccc2Cl)nnc1SCC(=O)Nc1cccc(OC)c1
91.5

Query: growth; subject: N=C(N)c1ccc(NCCNc2ccc(C(=N)N)cc2)cc1
97.3

Query: growth; subject: Cn1c(-c2ccccc2)cc(=O)n1-c1ccccc1
121

Query: growth; subject: O=C(CCCN1CCC(O)(c2ccc(Br)cc2)CC1)c1ccc(F)cc1
100

Query: growth; subject: Cc1cc2nc(CN)[nH]c2cc1C
110

Query: growth; subject: COC(=O)c1ccc2c(c1)nc(-c1cc3ccccc3[nH]c1=O)n2-c1cc(C(C)(C)C)[nH]n1
55.9

Query: growth; subject: CN1C2CCC1/C(=C\c1ccc(F)cc1)C(=O)/C2=C/c1ccc(F)cc1
50

Query: growth; subject: O/N=C/c1ccncc1
112

Query: growth; subject: ClC1(Cl)C2CCCCCCC21 (centres undefined)
93

Query: growth; subject: CCCCSc1ncnc2c1ncn2C1CCCCO1 (centres undefined)
104

Query: growth; subject: C/C(=N\Nc1ccc([N+](=O)[O-])cn1)c1ccc(N)cc1
100

Query: growth; subject: CCCCCCCCCCCCCCCC1=NCCN1
96

Query: growth; subject: CC(C)c1ccc(-c2cnc3nonc3n2)cc1
76.4

Query: growth; subject: Cc1ccc(C)c2c1SC1=NNC(Oc3ccc(Cl)cc3)=C(C#N)C(=N)N12
132

Query: growth; subject: O=C1/C(=C/N2N=C(c3ccc(Cl)cc3)CC2c2ccccc2O)SC(=S)N1c1cccc(C(F)(F)F)c1 (centres undefined)
90.7

Query: growth; subject: Cc1c2c(cc3c1[nH]c1ccccc13)C=NCC2
109

Query: growth; subject: CNC1=C([N+](=O)[O-])C(c2ccccc2O)C(C#N)=C(c2cccs2)O1 (centres undefined)
74.2

Query: growth; subject: C#CCNc1nc(NCCNC(=O)CCl)nc(N(C)CCCCc2ccccc2)n1
98.9

Query: growth; subject: OC(CCCCCCCCC(O)CN1CCc2ccccc2C1)CN1CCc2ccccc2C1 (centres undefined)
111

Query: growth; subject: COc1ccc(/C=C(\C#N)c2cc(OC)c(OC)c(OC)c2)cc1
64.7

Query: growth; subject: Cn1cnc([N+](=O)[O-])c1S(=O)(=O)Oc1ccccc1
98.2

Query: growth; subject: Cc1cc(Nc2c3ccccc3nc3ccccc23)ccc1NS(C)(=O)=O
40.7

Query: growth; subject: O=C(O)c1cc2cc(OCc3ccccc3)ccc2[nH]1
39.9
